Every entry's value here was drawn from ChEMBL document CHEMBL1157437.

# Test system: NRK
# test-summary: Effect on morphological reversion in src transformed NRK cells at 30 ug/mL
# Format: functional
# study-conditions: Rattus norvegicus
recorded-metric: inhibition at 30 µg/mL

The following compounds have reported results that may help.
1. CCCC[C@@]1(OC(=O)CCC(=O)O)CC[C@]2(CC[C@H](C)[C@@H](C/C=C(C)/C=C/C(=O)O)O2)O[C@H]1/C=C/C(C)=C/C(=O)O; < 10%
2. CCCC[C@@]1(OC(=O)CCC(=O)O)CC[C@]2(CC[C@H](C)[C@@H](C/C=C(C)/C=C/[C@H](O)[C@@H](C)CO)O2)O[C@H]1/C=C/C(C)=C/C(=O)O; 20%
3. CCCC[C@@]1(OC(=O)CCC(=O)O)CC[C@]2(CC[C@H](C)[C@@H](CCO)O2)O[C@H]1/C=C/C(C)=C/C(=O)O; < 10%
4. CC(/C=C/[C@H](OC(=O)CCC(=O)O)[C@@H](C)/C=C/C(=O)O)=C\C[C@H]1O[C@@]2(CC[C@H](C)[C@H](/C=C/C(C)=C/C(=O)O)O2)CC[C@@H]1C; < 10%

Attention now turns to another entry.
// returns reported inhibition at 30 µg/mL for input CCCC[C@@]1(OC(=O)CCC(=O)O)CC[C@]2(CC[C@H](C)[C@@H](C/C=C(C)/C=C/[C@H](O)[C@@H](C)/C=C/C(=O)O)O2)O[C@H]1/C=C/C(C)=C/C(=O)O [REVEROMYCIN A]
> 80%

---

# measurement-target: Isoleucine--tRNA ligase, cytoplasmic (Homo sapiens, UniProt P41252)
# Sequence (P41252 whole entry): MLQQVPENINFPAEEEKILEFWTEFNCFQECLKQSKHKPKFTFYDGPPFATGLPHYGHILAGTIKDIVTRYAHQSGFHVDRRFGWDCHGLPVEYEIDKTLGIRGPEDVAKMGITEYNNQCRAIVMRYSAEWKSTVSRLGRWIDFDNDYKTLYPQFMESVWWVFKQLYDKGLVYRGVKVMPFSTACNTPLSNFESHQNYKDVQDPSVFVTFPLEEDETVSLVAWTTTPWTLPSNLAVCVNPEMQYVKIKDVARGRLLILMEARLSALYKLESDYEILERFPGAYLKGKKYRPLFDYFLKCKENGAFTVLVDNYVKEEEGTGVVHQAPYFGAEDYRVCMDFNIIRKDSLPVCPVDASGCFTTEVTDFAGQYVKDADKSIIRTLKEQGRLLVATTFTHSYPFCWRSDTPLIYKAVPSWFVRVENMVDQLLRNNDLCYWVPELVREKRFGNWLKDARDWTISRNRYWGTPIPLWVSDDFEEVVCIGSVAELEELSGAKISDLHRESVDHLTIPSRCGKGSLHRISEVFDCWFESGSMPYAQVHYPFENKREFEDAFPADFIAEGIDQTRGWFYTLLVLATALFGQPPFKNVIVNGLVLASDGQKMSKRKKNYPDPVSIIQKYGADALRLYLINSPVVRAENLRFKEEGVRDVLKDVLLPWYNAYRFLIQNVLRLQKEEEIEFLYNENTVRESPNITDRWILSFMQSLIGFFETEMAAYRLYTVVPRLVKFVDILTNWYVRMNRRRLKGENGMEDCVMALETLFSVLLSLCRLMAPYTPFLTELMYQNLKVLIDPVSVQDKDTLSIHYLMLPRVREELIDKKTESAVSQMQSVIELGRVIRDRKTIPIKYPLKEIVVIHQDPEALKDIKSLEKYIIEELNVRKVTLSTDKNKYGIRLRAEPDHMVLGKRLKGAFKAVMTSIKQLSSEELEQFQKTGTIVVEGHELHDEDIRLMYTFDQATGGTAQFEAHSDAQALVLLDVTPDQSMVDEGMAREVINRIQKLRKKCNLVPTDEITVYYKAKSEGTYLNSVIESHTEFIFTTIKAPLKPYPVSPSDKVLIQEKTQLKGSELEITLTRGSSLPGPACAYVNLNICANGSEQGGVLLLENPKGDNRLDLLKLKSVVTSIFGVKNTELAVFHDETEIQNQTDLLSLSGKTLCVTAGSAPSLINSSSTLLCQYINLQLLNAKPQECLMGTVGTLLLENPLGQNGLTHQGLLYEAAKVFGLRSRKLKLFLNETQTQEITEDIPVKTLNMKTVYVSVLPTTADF
Provide the reported pIC50 of each item.
Give bare numbers, as −log10 of the molar value.

The following compounds have reported results that may help.
1. CCCC[C@@]1(O)CC[C@]2(CC[C@H](C)[C@@H](C/C=C(C)/C=C/[C@H](O)[C@@H](C)/C=C/C(=O)O)O2)O[C@H]1/C=C/C(C)=C/C(=O)O; 6.77
2. CCCC[C@@]1(OC(=O)CCC(=O)O)CC[C@]2(CC[C@H](C)[C@@H](C/C=C(C)/C=C/CO)O2)O[C@H]1/C=C/C(C)=C/C(=O)O; 6.00
3. CCCC[C@@]1(OC(=O)CCC(=O)OC)CC[C@]2(CC[C@H](C)[C@@H](C/C=C(C)/C=C/[C@H](O)[C@@H](C)/C=C/C(=O)O)O2)O[C@H]1/C=C/C(C)=C/C(=O)O; 6.36
4. CCCC[C@@]1(OC)CC[C@]2(CC[C@H](C)[C@@H](C/C=C(C)/C=C/[C@H](O)[C@@H](C)/C=C/C(=O)O)O2)O[C@H]1/C=C/C(C)=C/C(=O)O; 7.00
5. CCCC[C@@]1(OC(=O)CCC(=O)O)CC[C@]2(CC[C@H](C)[C@@H](C/C=C(C)/C=C/[C@H](O)[C@@H](C)/C=C/C(=O)OC)O2)O[C@H]1/C=C/C(C)=C/C(=O)O; 6.50

Below is a list of compounds. For each, state its recorded pIC50.
1. CCCC[C@@]1(OC(=O)CCC(=O)O)CC[C@]2(CC[C@H](C)[C@@H](C/C=C(C)/C=C/[C@H](O)[C@@H](O)/C=C/C(=O)O)O2)O[C@H]1/C=C/C(C)=C/C(=O)O [4-HYDROXY REVEROMYCIN A]
2. CCCC[C@@]1(OC(=O)CCC(=O)O)CC[C@]2(CC[C@H](C)[C@@H](C/C=C(C)/C=C/[C@H](OC)[C@@H](C)/C=C/C(=O)O)O2)O[C@H]1/C=C/C(C)=C/C(=O)O
3. CCCC[C@@]1(OC(=O)CCC(=O)O)CC[C@]2(CC[C@H](C)[C@@H](C/C=C(C)/C=C/[C@H](O)[C@@H](C)/C=C/C(=O)O)O2)O[C@H]1/C=C/C(C)=C/C(=O)O [REVEROMYCIN A]
4. CC(/C=C/[C@H](O)[C@@H](C)/C=C/C(=O)O)=C\C[C@H]1O[C@@]2(CC[C@H](C)[C@H](/C=C/C(C)=C/C(=O)O)O2)CC[C@@H]1C [SPIROFUNGIN A]
5. CCCC[C@@]1(OC(=O)CCC(=O)O)CC[C@]2(CC[C@H](C)[C@@H](C/C=C(C)/C=C/[C@@H](O)[C@@H](C)/C=C/C(=O)O)O2)O[C@H]1/C=C/C(C)=C/C(=O)O [5-EPIREVEROMYCIN A]
6. CCCC[C@@]1(OC(=O)CCC(=O)O)CC[C@]2(CC[C@H](C)[C@@H](C/C=C(C)/C=C/[C@H](O)[C@@H](C)CCC(=O)O)O2)O[C@H]1/C=C/C(C)=C/C(=O)O [2,3-DIHYDROREVEROMYCIN A]
7. CCCC[C@@]1(OC(=O)CCC(=O)O)CC[C@]2(CC[C@H](C)[C@@H](C/C=C(C)/C=C/[C@@H](O)[C@@H](C)CCC(=O)O)O2)O[C@H]1/C=C/C(C)=C/C(=O)O [2,3-DIHYDRO-5-EPIREVEROMYCIN A]

7.66
6.26
8.35
5.95
6.24
7.76
7.06
